// data source = the supplement of paper PMC6555819

Tested on: PPARg:RXRa 90nM:30nM, anti-RXR (NR concentration 90 nM, RXRa partner concentration 30 nM)
test_summary: PBM binding z-score (relative to random genomic background probes); higher = stronger binding; sequences stand for … in GC…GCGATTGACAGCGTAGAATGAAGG
Assign class by PBM binding z-score: not lower than 1 means condition met; lower than 1 means condition not met.

A selection of reference data follows.
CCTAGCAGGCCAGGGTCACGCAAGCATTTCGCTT condition met
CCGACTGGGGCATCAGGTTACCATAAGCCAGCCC condition met
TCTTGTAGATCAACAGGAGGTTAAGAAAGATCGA condition met
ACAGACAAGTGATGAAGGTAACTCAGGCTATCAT condition not met

Ask | Can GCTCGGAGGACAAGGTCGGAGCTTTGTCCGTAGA be said to have PBM binding z-score at or above 1?
Reply | condition not met

====

Test system: PXR homodimer (NR concentration 270 nM)
test_summary: PBM binding z-score (relative to random genomic background probes); higher = stronger binding; sequences stand for … in GC…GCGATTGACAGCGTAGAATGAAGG
Listing of recorded PBM binding z-score by entry.
Just the number.

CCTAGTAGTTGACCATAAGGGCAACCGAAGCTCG 0.221
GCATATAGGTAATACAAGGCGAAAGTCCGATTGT -0.179
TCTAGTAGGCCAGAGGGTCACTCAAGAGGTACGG -0.532
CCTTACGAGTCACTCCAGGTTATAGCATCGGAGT 1.12
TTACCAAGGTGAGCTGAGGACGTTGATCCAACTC -0.289

Okay, now this sequence:
Ask | Provide the documented PBM binding z-score with PXR homodimer (NR concentration 270 nM) as the system for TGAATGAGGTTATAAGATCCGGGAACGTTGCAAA
Reply | -0.0533

====

System: PPARg DBDmut IVT, anti-PPARg (DBD mutation: PPARg1 K132A/R137A, NR concentration 270 nM)
test_summary: PBM binding z-score (relative to random genomic background probes); higher = stronger binding; sequences stand for … in GC…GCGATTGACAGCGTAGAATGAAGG
Assign class by PBM binding z-score: not lower than -0.3 means class 1; lower than -0.3 means class 0.

A selection of reference data follows.
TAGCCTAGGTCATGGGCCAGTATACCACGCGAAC class 0
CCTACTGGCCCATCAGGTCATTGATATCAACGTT class 1
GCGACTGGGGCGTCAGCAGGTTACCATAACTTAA class 0
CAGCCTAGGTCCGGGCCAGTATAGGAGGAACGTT class 0
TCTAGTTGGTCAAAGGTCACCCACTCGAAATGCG class 1
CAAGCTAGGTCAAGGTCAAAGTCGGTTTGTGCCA class 1

Ask | Can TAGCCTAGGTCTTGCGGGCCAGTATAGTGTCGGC be said to have PBM binding z-score at or above -0.3?
Reply | class 0

Ask | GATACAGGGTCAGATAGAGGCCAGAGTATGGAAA ?
Reply | class 1

Ask | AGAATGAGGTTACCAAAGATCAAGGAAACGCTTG ?
Reply | class 1

Ask | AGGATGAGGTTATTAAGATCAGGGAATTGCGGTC ?
Reply | class 1

Ask | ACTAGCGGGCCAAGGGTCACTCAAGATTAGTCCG ?
Reply | class 0

====

Listing of recorded PBM binding z-score by entry.
Tested on: PPARg homodimer (NR concentration 180 nM)
test_summary: PBM binding z-score (relative to random genomic background probes); higher = stronger binding; sequences stand for … in GC…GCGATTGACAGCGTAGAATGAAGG
Just the number.

Ask | Requested read-out: PBM binding z-score. Entry: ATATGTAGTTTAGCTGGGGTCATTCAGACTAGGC
Reply | 1.95

Ask | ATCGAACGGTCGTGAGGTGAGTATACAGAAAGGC ?
Reply | 0.0797

Ask | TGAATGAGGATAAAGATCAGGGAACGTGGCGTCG ?
Reply | -0.144

Ask | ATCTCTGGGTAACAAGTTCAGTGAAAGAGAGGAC ?
Reply | 1.27

====

Tested on: RARa homodimer (NR concentration 270 nM)
test_summary: PBM binding z-score (relative to random genomic background probes); higher = stronger binding; sequences stand for … in GC…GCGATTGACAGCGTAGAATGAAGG
Listing of recorded PBM binding z-score by entry.
Just the number.

Example cases with answers are listed next.
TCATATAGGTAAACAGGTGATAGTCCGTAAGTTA 1.46
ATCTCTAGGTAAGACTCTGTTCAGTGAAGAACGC 1.18

Ask | Requested read-out: PBM binding z-score. Entry: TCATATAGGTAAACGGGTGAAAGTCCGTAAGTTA
Reply | 0.587

Ask | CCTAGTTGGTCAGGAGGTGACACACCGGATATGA ?
Reply | 0.818

Ask | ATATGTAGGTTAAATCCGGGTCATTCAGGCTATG ?
Reply | 0.415

Ask | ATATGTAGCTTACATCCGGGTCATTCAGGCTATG ?
Reply | 0.0612

Ask | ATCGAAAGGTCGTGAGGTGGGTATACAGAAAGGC ?
Reply | 1.39

Ask | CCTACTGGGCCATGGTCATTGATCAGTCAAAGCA ?
Reply | -1.03

====

Tested on: RARb:RXRa (NR concentration 270 nM, RXRa partner concentration 90 nM)
test_summary: PBM binding z-score (relative to random genomic background probes); higher = stronger binding; sequences stand for … in GC…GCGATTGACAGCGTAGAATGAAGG
Each entry falls into one class according to its PBM binding z-score; the ranges are group 1 = under 1, group 2 = from 1 up to 3, group 3 = 3 and over

A selection of reference data follows.
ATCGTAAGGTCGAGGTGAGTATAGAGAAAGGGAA group 3
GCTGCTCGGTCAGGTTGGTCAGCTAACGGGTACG group 2
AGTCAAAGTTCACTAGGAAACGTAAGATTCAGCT group 3

Ask | Hello team, could you let me know which band the following sequence falls into: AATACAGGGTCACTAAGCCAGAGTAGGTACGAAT
Reply | group 3

Ask | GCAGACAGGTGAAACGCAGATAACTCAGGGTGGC ?
Reply | group 1

Ask | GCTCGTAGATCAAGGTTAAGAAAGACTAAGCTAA ?
Reply | group 1

====

Listing of recorded PBM binding z-score by entry.
Tested on: RXRa DBDmut IVT, anti-RXR (DBD mutation: RXRa K156A/R161A, NR concentration 90 nM)
test_summary: PBM binding z-score (relative to random genomic background probes); higher = stronger binding; sequences stand for … in GC…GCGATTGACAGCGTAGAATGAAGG

Example cases with answers are listed next.
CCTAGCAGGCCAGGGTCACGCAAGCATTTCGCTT 0.0811
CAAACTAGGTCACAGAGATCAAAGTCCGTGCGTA 1.59
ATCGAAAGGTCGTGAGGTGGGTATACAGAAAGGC 1.52
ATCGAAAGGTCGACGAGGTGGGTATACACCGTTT 0.746
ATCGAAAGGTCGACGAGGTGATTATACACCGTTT 1.34

Ask | Provide the documented PBM binding z-score with RXRa DBDmut IVT, anti-RXR (DBD mutation: RXRa K156A/R161A, NR concentration 90 nM) as the system for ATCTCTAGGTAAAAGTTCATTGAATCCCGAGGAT
Reply | 1.89

Ask | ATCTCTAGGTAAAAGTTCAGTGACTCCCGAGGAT ?
Reply | 0.624

Ask | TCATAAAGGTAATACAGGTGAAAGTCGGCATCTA ?
Reply | 1.78

Ask | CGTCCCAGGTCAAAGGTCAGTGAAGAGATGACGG ?
Reply | 2.62

Ask | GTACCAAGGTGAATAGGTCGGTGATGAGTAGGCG ?
Reply | -0.398

Ask | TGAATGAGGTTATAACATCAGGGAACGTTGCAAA ?
Reply | 0.901

Ask | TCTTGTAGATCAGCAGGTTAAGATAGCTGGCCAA ?
Reply | 0.631

====

Listing of recorded PBM binding z-score by entry.
Test system: PPARg:RXRa 270nM:90nM, anti-RXR (NR concentration 270 nM, RXRa partner concentration 90 nM)
test_summary: PBM binding z-score (relative to random genomic background probes); higher = stronger binding; sequences stand for … in GC…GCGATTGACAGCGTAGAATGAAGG
Just the number.

Example cases with answers are listed next.
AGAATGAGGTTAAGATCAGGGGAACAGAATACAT 2.48
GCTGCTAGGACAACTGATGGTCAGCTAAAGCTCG -0.895
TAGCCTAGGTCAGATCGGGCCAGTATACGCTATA 0.845
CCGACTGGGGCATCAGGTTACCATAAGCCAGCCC 1.59
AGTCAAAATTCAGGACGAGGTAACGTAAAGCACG 0.294
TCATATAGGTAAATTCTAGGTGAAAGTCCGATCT 3.22

Ask | Requested read-out: PBM binding z-score. Entry: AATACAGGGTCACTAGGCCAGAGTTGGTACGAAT
Reply | 6.63

Ask | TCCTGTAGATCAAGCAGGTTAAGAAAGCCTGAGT ?
Reply | 1.19

Ask | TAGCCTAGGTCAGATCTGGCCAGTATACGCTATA ?
Reply | 0.718

Ask | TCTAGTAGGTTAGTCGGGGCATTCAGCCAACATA ?
Reply | 2.5

Ask | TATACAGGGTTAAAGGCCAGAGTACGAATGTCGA ?
Reply | 5.44

Ask | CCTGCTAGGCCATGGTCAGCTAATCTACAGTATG ?
Reply | -0.552

Ask | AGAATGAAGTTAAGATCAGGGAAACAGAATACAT ?
Reply | 0.0665

Ask | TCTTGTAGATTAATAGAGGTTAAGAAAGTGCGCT ?
Reply | 2.2

Ask | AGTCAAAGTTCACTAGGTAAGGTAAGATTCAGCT ?
Reply | 5.99

Ask | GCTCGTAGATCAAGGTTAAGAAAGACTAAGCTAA ?
Reply | 0.485

Ask | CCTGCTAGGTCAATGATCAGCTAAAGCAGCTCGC ?
Reply | 2.46

Ask | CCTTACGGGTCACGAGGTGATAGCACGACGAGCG ?
Reply | 6.5

Ask | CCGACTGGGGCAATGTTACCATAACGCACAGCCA ?
Reply | 0.645

Ask | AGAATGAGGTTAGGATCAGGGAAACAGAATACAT ?
Reply | 1

Ask | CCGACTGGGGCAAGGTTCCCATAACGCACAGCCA ?
Reply | 3.89

Ask | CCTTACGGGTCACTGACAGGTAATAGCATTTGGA ?
Reply | 4.42

Ask | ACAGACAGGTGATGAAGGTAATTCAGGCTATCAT ?
Reply | -0.256

Ask | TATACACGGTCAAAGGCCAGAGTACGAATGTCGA ?
Reply | 4.34

Ask | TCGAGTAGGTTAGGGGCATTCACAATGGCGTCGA ?
Reply | 1.84
